The reported measurements were obtained from patent US20110166062A1.

Biological target: T1, GIP receptor (UniProt P48546 22-466)
T1 sequence (looked up): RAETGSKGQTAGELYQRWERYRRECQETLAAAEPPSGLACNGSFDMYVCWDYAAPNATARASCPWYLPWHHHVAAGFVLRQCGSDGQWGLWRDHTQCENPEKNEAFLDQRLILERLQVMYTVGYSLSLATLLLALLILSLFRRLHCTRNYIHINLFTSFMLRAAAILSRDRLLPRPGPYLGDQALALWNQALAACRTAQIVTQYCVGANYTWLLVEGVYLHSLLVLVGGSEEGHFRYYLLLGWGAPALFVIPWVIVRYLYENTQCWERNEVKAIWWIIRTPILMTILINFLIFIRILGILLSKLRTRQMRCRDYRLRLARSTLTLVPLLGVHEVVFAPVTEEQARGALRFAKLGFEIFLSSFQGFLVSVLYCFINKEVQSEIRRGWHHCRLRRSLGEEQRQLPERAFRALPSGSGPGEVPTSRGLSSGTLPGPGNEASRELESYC
Assay: cell-based or functional assay
Where no end group is shown, it is not given here. [ ]: non-standard residue; d: D form. The star is where a group is joined. C18 fatty acyl = 18 carbon fatty acyl group covalently attached to Lys; PEG 40 kDa = PEG (40 kDa) covalently attached to Cys; Myristoyl = CCCCCCCCCCCCCC(=O)*; Aib = CC(C)(N)C(=O)O
Note: every record was labeled by where its EC50 sits among lower band: < 5 pM; central band: ≥ 5 pM and < 20 pM; upper band: ≥ 20 pM

Y[Aib]EGTFTSDYSIYLDKQAA[Aib]EFVC(PEG 40 kDa)WLLAGGPSSGAPPPSK-NH2 (not fully specified) [mt-311] = upper band
Y[Aib]EGTFTSDYSIYLDKQAA[Aib]EFVC(PEG 40 kDa)WLLAGGPSSGAPPPSK(C18 fatty acyl)-NH2 [mt-310] = central band
Y[Aib]EGTFTSDK(Myristoyl)SIYLDKQAA[Aib]EFVCWLLAGGPSSGAPPPS-NH2 (also: C-terminal amidation listed at position 40 of 39-residue chain) [mt-337] = central band
Y[Aib]EGTFTSDYSIYLDKQAA[Aib]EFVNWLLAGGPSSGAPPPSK(Myristoyl)C-NH2 [mt-339] = lower band
Y[Aib]EGTFTSDYSIYLDKQAA[Aib]EFVC(PEG 40 kDa)WLLAGGPSSGAPPPSK(Myristoyl)-NH2 [mt-309] = central band

Consider Y[Aib]EGTFTSDYSIYLDKQAA[Aib]EFVNWLLAGGPSSGAPPPSKC-NH2 [mt-340] . To which EC50 class does it belong?
lower band

Which class does Y[Aib]EGTFTSDYSIYLDKQAA[Aib]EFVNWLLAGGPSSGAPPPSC(PEG 40 kDa)-NH2 [mt-274] fall in?
upper band

Form: Item = Y[Aib]EGTFTSDYSIYLDKQAA[Aib]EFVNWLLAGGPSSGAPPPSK(Myristoyl)-NH2 [mt-260] ; Class = ?
lower band

Sort Y[Aib]EGTFTSDKSIYLDKQAA[Aib]EFVCWLLAGGPSSGAPPPS-NH2 (also: C-terminal amidation listed at position 40 of 39-residue chain) [mt-338] into one of the categories.
upper band

Looking at Y[Aib]EGTFTSDYSIYLDKQAA[Aib]EFVC(PEG 40 kDa)WLLAGGPSSGAPPPSK-NH2 (also: PEG linkage structure not given here) [mt-331] , which class would you pick?
upper band
